Particulars: pH 7.8
Readout name: logp [b]

| Molecule | logp [b] |
| --- | --- |
| O=C(Cn1nc(C(F)F)cc1C(F)F)N1CCC(c2nc(C3=NOC(c4ccc(OS(=O)(=O)C5CC5)cc4)C3)cs2)CC1 (stereo not shown) [I-106] | 3.05[b] |
| O=C(Oc1ccccc1C1CC(c2csc(C3CCN(C(=O)Cn4nc(C(F)F)cc4C(F)F)CC3)n2)=NO1)c1ccc(F)cc1 (stereo not shown) [I-132] | 3.7[b] |
| Cc1cc(C(F)(F)F)nn1CC(=O)N1CCC(c2nc(C3=NOC(c4cccc(OS(=O)(=O)C5CC5)c4)C3)cs2)CC1 (stereo not shown) [I-101] | 3.12[b] |
| CSCOc1ccccc1C1CC(c2csc(C3CCN(C(=O)Cn4nc(C(F)F)cc4C(F)F)CC3)n2)=NO1 (stereo not shown) [I-112] | 3.56[b] |
| Cc1ccc(C)c(NC(=O)N2CCC(c3nc(C4=NOC(c5c(Cl)cccc5OS(C)(=O)=O)C4)cs3)CC2)c1 (racemic) [I-52] | 3.25[b] |
| CCS(=O)(=O)Oc1ccc(C2CC(c3csc(C4CCN(C(=O)Cn5nc(C(F)F)cc5C(F)F)CC4)n3)=NO2)cc1 (stereo not shown) [I-105] | 2.96[b] |

Lab note: next molecule to report on.
[in] Query (molecule): O=C(Cn1nc(C(F)F)cc1C(F)F)N1CCC(c2nc(C3=NOC(c4cccc(OCC#Cc5cccc6ccccc56)c4)C3)cs2)CC1 (stereo not shown) [I-137] ; field requested: logp [b]
[out] 4.71[b]

* * *

Listed here: items and their measured logp [a].
Particulars: pH 2.7

Look over these answered cases.
| Compound | logp [a] |
| --- | --- |
| CCON=Cc1cccc(C2CC(c3csc(C4CCN(C(=O)Cn5nc(C(F)(F)F)cc5C)CC4)n3)=NO2)c1 (mixture of isomers) | 3.8[a] |
| CS(=O)(=O)Oc1c(Cl)cccc1C1CC(c2csc(C3CCN(C(=O)Cn4nc(C(F)F)cc4C(F)F)CC3)n2)=NO1 (stereo not shown) | 3.19[a], |
| O=CNc1ccccc1C1CC(c2csc(C3CCN(C(=O)Cc4cc(C(F)F)ccc4C(F)F)CC3)n2)=NO1 (stereo not shown) | 2.74[a], |

Now, please, on to the next compound.
[in] Looking for the measured logp [a] of Cc1ccc(S(=O)(=O)Oc2ccccc2C2(C)CC(c3csc(C4CCN(C(=O)Cn5nc(C(F)F)cc5C)CC4)n3)=NO2)cc1 (racemic) , can you help?
[out] 4.05[a],

* * *

Particulars: pH 2.7
Readout name: logp [a]

Here are 5 molecules together with their reported answers.
| Molecule | logp [a] |
| --- | --- |
| CSCOc1ccccc1C1CC(c2csc(C3CCN(C(=O)Cn4nc(C(F)(F)F)cc4C)CC3)n2)=NO1 (stereo not drawn) | 3.59[a], |
| O=C(Cn1nc(C(F)F)cc1C(F)F)N1CCC(c2nc(C3=NOC(c4ccc(OS(=O)(=O)C5CC5)cc4)C3)cs2)CC1 (stereo not drawn) | 3.06[a], |
| CCS(=O)(=O)Oc1ccc(C2CC(c3csc(C4CCN(C(=O)Cn5nc(C(F)(F)F)cc5C)CC4)n3)=NO2)cc1 (stereo not drawn) | 3.14[a], |
| O=C(O)c1ccccc1C1CC(c2csc(C3CCN(C(=O)Cn4nc(C(F)F)cc4C(F)F)CC3)n2)=NO1 (stereo not drawn) | 2.63[a] |
| O=C(Oc1ccccc1C1CC(c2csc(C3CCN(C(=O)Cn4nc(C(F)F)cc4C(F)F)CC3)n2)=NO1)c1ccccc1F (stereo not drawn) | 3.61[a], |

[in] State the recorded logp [a] for this entry: Cc1ccc(C2CC(c3csc(C4CCN(C(=O)Cn5nc(C(F)(F)F)cc5C)CC4)n3)=NO2)c(OCC#N)c1 (stereo not drawn)
[out] 3.29[a],

[in] Need logp [a], item Cc1cc(C(F)(F)F)nn1CC(=O)N1CCC(c2nc(C3=NOC(c4cccc(F)c4OCC#N)C3)cs2)CC1 (stereo not drawn)
[out] 3.22[a],

[in] Reported logp [a] for Cc1cc(C(F)(F)F)nn1CC(=O)N1CCC(c2nc(C3=NOC(c4c(F)cccc4OCC#N)C3)cs2)CC1 (stereo not drawn) : what is it?
[out] 3.05[a],

[in] logp [a] for COCC[S+]([O-])Cc1ccccc1C1CC(c2csc(C3CCN(C(=O)Cn4nc(C(F)F)cc4C(F)F)CC3)n2)=NO1 (mixture of isomers) ?
[out] 2.52[a]

[in] Item under review: Cc1ccc(C)c(NC(=O)N2CCC(c3nc(C4=NOC(c5ccccc5OS(C)(=O)=O)C4)cs3)CC2)c1 (stereo not drawn) . Reported logp [a]?
[out] 3.08[a],

[in] # get_value(readout='logp [a]', item= CC1(c2ccccc2OS(C)(=O)=O)CC(c2csc(C3CCN(C(=O)Cn4nc(C(F)F)cc4C(F)F)CC3)n2)=NO1 (racemic) )
[out] 3.16[a],

[in] Requested field: logp [a]. Item: Cc1cc(C(F)(F)F)nn1CC(=O)N1CCC(c2nc(C3=NOC(c4cccc(OS(=O)(=O)C5CC5)c4)C3)cs2)CC1 (stereo not drawn)
[out] 3.25[a],

[in] Which logp [a] reading was recorded for the molecule CC(=NO)c1ccccc1C1CC(c2csc(C3CCN(C(=O)Cn4nc(C(F)(F)F)cc4C)CC3)n2)=NO1 (stereo not drawn) ?
[out] 2.92[a]

[in] Fill in: logp [a] of Cc1cc(C(F)(F)F)nn1CC(=O)N1CCC(c2nc(C3=NOC(c4ccccc4NC=O)C3)cs2)CC1 (stereo not drawn) is ___
[out] 2.49[a],

[in] Consider the molecule CC(=O)OCc1ccccc1C1CC(c2csc(C3CCN(C(=O)Cn4nc(C(F)F)cc4C(F)F)CC3)n2)=NO1 (racemic) and give its measured logp [a].
[out] 3.22[a]

* * *

Particulars: pH 7.8
Readout name: logp [b]

Guide cases for logp [b], answers given:
| Compound | logp [b] |
| --- | --- |
| N#CCOc1cccc(F)c1C1CC(c2csc(C3CCN(C(=O)Cn4nc(C(F)F)cc4C(F)F)CC3)n2)=NO1 (centres unmarked) | 2.88[b] |
| Cc1ccc(Cl)cc1NC(=O)N1CCC(c2nc(C3=NOC(c4c(Cl)cccc4OS(C)(=O)=O)C3)cs2)CC1 (racemic) | 3.43[b] |
| C/C=C/C(=O)Oc1ccccc1C1CC(c2csc(C3CCN(C(=O)Cn4nc(C(F)F)cc4C(F)F)CC3)n2)=NO1 (centres unmarked) | 3.37[b] |
| N#CCCn1cccc1C1CC(c2csc(C3CCN(C(=O)Cn4nc(C(F)F)cc4C(F)F)CC3)n2)=NO1 (centres unmarked) | 2.64[b] |
| Cc1cc(OS(C)(=O)=O)c(C2(C)CC(c3csc(C4CCN(C(=O)Cn5nc(C(F)F)cc5C(F)F)CC4)n3)=NO2)cc1C (centres unmarked) | 3.58[b] |

[in] For Cc1cc(C(F)(F)F)nn1CC(=O)N1CCC(c2nc(C3=NOC(c4ccccc4OS(C)(=O)=O)C3)cs2)CC1 (racemic) , what is its reported logp [b]?
[out] 2.98[b]

[in] Need logp [b], item Cc1cc(C(F)(F)F)nn1CC(=O)N1CCC(c2nc(C3=NOC(c4cccc(OCC#N)c4)C3)cs2)CC1 (centres unmarked)
[out] 2.97[b]

[in] Using the record for COc1cccc(OS(C)(=O)=O)c1C1(C)CC(c2csc(C3CCN(C(=O)Cn4nc(C(F)F)cc4C(F)F)CC3)n2)=NO1 (centres unmarked) , report its logp [b].
[out] 3.11[b]

[in] Entry Cc1cc(C(F)(F)F)nn1CC(=O)N1CCC(c2nc(C3=NOC(c4c(Cl)cccc4OS(C)(=O)=O)C3)cs2)CC1 (centres unmarked) has what logp [b]?
[out] 3.2[b]

[in] Requested read-out: logp [b]. Entry: Cc1cc(C(F)(F)F)nn1CC(=O)N1CCC(c2nc(C3=NOC(c4ccccc4OCC#N)C3)cs2)CC1 (centres unmarked)
[out] 2.98[b]

[in] Dear colleague, I am looking for the recorded logp [b] of the following compound: Cc1ccc(C2CC(c3csc(C4CCN(C(=O)Cn5nc(C(F)F)cc5C(F)F)CC4)n3)=NO2)c(OS(C)(=O)=O)c1 (centres unmarked)
[out] 3.12[b]

* * *

Particulars: pH 2.7
Examples of compounds with documented logp [a] follow.

Example entries begin here.
| Compound | Readout name | Value measured |
| --- | --- | --- |
| C#CCN(C=O)c1ccccc1C1CC(c2csc(C3CCN(C(=O)Cn4nc(C(F)F)cc4C(F)F)CC3)n2)=NO1 (stereo not drawn) [I-117] | logp [a] | 2.65[a], |
| CSCOc1ccccc1C1CC(c2csc(C3CCN(C(=O)Cn4nc(C(F)F)cc4C(F)F)CC3)n2)=NO1 (stereo not drawn) [I-112] | logp [a] | 3.49[a], |

[in] Looking for the measured logp [a] of Cc1cc(C(F)(F)F)nn1CC(=O)N1CCC(c2nc(C3=NOC(c4c(Cl)cccc4OCC#N)C3)cs2)CC1 (stereo not drawn) [I-78] , can you help?
[out] 3.31[a],

[in] # input compound: O=C(Cn1nc(C(F)F)cc1C(F)F)N1CCC(c2nc(C3=NOC(c4cc(F)ccc4OS(=O)(=O)C4CC4)C3)cs2)CC1 (stereo not drawn) [I-84] ; wanted: its logp [a]
[out] 3.32[a],

[in] For the compound N#CCOc1ccc(C2CC(c3csc(C4CCN(C(=O)Cn5nc(C(F)F)cc5C(F)F)CC4)n3)=NO2)cc1 (stereo not drawn) [I-81] , what logp [a] is on record?
[out] 2.89[a],

[in] Entry C/C=C/C(=O)Oc1ccccc1C1CC(c2csc(C3CCN(C(=O)Cn4nc(C(F)F)cc4C(F)F)CC3)n2)=NO1 (stereo not drawn) [I-82] has what logp [a]?
[out] 3.46[a],

[in] Look up logp [a] for this compound: O=C(Cn1nc(C(F)F)cc1C(F)F)N1CCC(c2nc(C3=NOC(c4ccccc4OC(=O)C4(Cl)CC4)C3)cs2)CC1 (stereo not drawn) [I-107]
[out] 3.66[a],

[in] What value of logp [a] has been recorded for this entry: O=C(Cn1nc(C(F)F)cc1C(F)F)N1CCC(c2nc(C3=NOC(c4ccccc4OS(=O)(=O)C4CC4)C3)cs2)CC1 (stereo not drawn) [I-64]
[out] 3.24[a],
